target.system: cathepsin S (CatS) (Homo sapiens)
Sequence (P25774 115-331): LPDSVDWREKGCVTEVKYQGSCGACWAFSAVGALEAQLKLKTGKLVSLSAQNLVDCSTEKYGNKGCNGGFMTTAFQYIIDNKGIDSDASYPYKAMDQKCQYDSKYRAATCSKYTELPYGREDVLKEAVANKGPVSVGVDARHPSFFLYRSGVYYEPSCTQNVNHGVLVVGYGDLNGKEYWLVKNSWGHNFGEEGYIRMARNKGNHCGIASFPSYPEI
protocol.summary: Cathepsin S enzyme inhibition
Format: biochemical
condition.label: SD lower than 15%; read-out: pKi CatS (converted)
recorded.endpoint: log10(Ki) (log10 of the value in nM)

# smiles.representation, target.system, log10(Ki)
data = [
    ("C[C@@H](O)[C@@H](C#N)NC(=O)[C@H](Cc1cccc(Cl)c1)NC(=O)c1cc(C(C)(C)C)nn1C", "cathepsin S (CatS) (Homo sapiens)", 2.40),
    ("C[C@@H](OCc1ccccc1)[C@@H](C#N)NC(=O)[C@H](Cc1cccc(Cl)c1)NC(=O)c1cc(C(C)(C)C)nn1C", "cathepsin S (CatS) (Homo sapiens)", 2.50),
    ("Cn1nc(C(C)(C)C)cc1C(=O)N[C@@H](Cc1cccc(Cl)c1)C(=O)NC1(C#N)CC1", "cathepsin S (CatS) (Homo sapiens)", 2.30),
    ("C[C@H](O)[C@H](C#N)NC(=O)[C@H](Cc1ccccc1)NC(=O)c1cc(C(C)(C)C)nn1C", "cathepsin S (CatS) (Homo sapiens)", 4.30),
    ("C[C@@H](OCc1ccccc1)[C@H](NC(=O)c1cc(C(C)(C)C)nn1C)C(=O)NC1(C#N)CC1", "cathepsin S (CatS) (Homo sapiens)", 3.10),
    ("Cn1nc(C(C)(C)C)cc1C(=O)N[C@@H](Cc1ccccc1)C(=O)N[C@@H](C#N)Cc1ccccc1", "cathepsin S (CatS) (Homo sapiens)", 3.10),
    ("CC(C)C[C@H](NC(=O)c1ccc(N)nc1)C(=O)NC1(C#N)CC1", "cathepsin S (CatS) (Homo sapiens)", 1.40),
]
